Here the recorded Kd is given for each entry.
- measured.target: Farnesyl pyrophosphate synthase (Rattus norvegicus)
- Sequence (P05369 whole entry): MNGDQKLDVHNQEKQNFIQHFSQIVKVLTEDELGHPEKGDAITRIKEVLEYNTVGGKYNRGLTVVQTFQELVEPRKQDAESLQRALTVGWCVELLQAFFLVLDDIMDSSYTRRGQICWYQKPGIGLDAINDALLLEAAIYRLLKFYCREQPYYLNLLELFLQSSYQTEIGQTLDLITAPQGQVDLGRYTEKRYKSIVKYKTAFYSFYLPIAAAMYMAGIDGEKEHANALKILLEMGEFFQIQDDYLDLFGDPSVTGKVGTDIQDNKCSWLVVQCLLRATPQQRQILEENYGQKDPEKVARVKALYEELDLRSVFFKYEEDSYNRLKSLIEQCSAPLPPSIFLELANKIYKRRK

compound | Kd / µM
O=C(CC1(O)C(=O)Nc2ccccc21)CC1(O)C(=O)Nc2ccccc21 (configuration not stated) | 181
COc1ccccc1CN(CCS(=O)(=O)N1CCNCC1)S(=O)(=O)c1ccc(C)cc1 | 14.3

###

Below, each entry is listed with its recorded inhibition.
- measured.target: UniProtKB P05369
- assay: Inhibition of rat FPPS expressed in Escherichia coli BL21 (DE3) using GPP and IPP as substrate at 10 uM incubated for 10 mins by microplate reader
measured.property: inhibition (%)

compound | measured.target | value.measured
CC(=O)N[C@H]1[C@H](OCc2ccccc2)O[C@H](CO)[C@@H](O)[C@@H]1O | UniProtKB P05369 | 29.9
Cc1c(O[C@@H]2O[C@H](CO)[C@@H](O)[C@H](O)[C@H]2O)ccc2c3c(c(=O)oc12)CCCCC3 | UniProtKB P05369 | 17.3
O=C(CC1(O)C(=O)Nc2ccccc21)CC1(O)C(=O)Nc2ccccc21 (centres undefined) | UniProtKB P05369 | 13
O=c1oc2cc(O[C@@H]3O[C@H](CO)[C@@H](O)[C@H](O)[C@H]3O)ccc2c2ccccc12 | UniProtKB P05369 | 11.5
COc1ccccc1CN(CCS(=O)(=O)N1CCNCC1)S(=O)(=O)c1ccc(C)cc1 | UniProtKB P05369 | 24
CNS(=O)(=O)c1cn(CC(=O)Nc2cc(C)cc(C)c2)cc1S(=O)(=O)NC | UniProtKB P05369 | 23.4
O=Cc1ccc(O[C@@H]2O[C@H](CO)[C@@H](O)[C@H](O)[C@H]2O)cc1 | UniProtKB P05369 | 29.3
CC(C)Oc1ccc(CNC(=O)C2CCCN(S(=O)(=O)N3CCOCC3)C2)cc1 (centres undefined) | UniProtKB P05369 | 28.9
CCC(C)c1ccc(O[C@@H]2O[C@H](CO)[C@@H](O)[C@H](O)[C@H]2NC(C)=O)cc1 (some centres undefined) | UniProtKB P05369 | 25.3

###

- Tested on: HCT-116
- assay: Cytotoxicity against FPPS-positive human HCT116 cells assessed as cell viability in presence of GGOH measured after 48 hrs by MTT assay
- Format: functional, cell-based
- cond: HCT-116, 48 h
pIC50: −log10 of the molar value.

structure.as.smiles | measured.target | pIC50
COc1ccccc1CN(CCS(=O)(=O)N1CCNCC1)S(=O)(=O)c1ccc(C)cc1 | HCT-116 | 4.13
